All values here come from a collection of fitness landscapes (doi:10.1016/j.celrep.2020.107928).

B1: Caulobacter ParB omega fusion; a variant is named by its letters at X, in order, B8GW30 (parent)
chain: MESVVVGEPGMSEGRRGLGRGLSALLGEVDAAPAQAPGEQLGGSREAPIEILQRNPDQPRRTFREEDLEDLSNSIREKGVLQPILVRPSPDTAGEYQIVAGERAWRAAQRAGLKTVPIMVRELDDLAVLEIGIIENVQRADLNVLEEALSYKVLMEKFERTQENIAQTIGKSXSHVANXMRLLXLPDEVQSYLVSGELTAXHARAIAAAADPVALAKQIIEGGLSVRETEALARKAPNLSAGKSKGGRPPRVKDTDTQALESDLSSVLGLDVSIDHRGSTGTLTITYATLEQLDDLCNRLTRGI

variants of: B1; test: one-hybrid fitness for binding NBS DNA (the Noc-binding site; scaled: cognate 1, non-cognate 0); higher = stronger binding; conditions: with NBS DNA site
In all, about 81,000 sequences were measured (“one-hybrid fitness for binding NBS DNA”: median about -0.1, highest 2% from about 0.36 on). What follows is part of a selection rich in the highest values, with near analogues and random picks from the rest.
variants and their reported one-hybrid fitness for binding NBS DNA

Use the examples below as a reference point.
RQYS	0.322
QVVR	0.285
RQRN	0.221
KASM	≤ 0.2
RQHS	0.468

Dear colleague, I am looking for the recorded one-hybrid fitness for binding NBS DNA of the following variant: AVGC
≤ 0.2

Dear colleague, I am looking for the recorded one-hybrid fitness for binding NBS DNA of the following variant: ITPE
≤ 0.2

Dear colleague, I am looking for the recorded one-hybrid fitness for binding NBS DNA of the following variant: QVHD
≤ 0.2

Dear colleague, I am looking for the recorded one-hybrid fitness for binding NBS DNA of the following variant: RQCR
0.394

Dear colleague, I am looking for the recorded one-hybrid fitness for binding NBS DNA of the following variant: QVHR
0.436

Dear colleague, I am looking for the recorded one-hybrid fitness for binding NBS DNA of the following variant: RQCS
0.278
